Species: Homo sapiens
Experiment: Inhibitory concentration for anti-platelet aggregation induced by arachidonic acid at 100 uM concentration
Assay type: functional, organism-based
Experimental readout: IC50 (µM)

{"columns": ["Molecule", "Unit symbol", "IC50"],
 "data": [
  ["Cc1cccc2c(=O)oc(-c3ccccc3Br)nc12", "µM", 5.8],
  ["Cc1cccc2c(=O)oc(-c3ccccc3Cl)nc12", "µM", 4.3],
  ["COc1ccccc1-c1nc2c(Cl)cccc2c(=O)o1", "µM", 25.4],
  ["O=c1oc(-c2ccccc2Cl)nc2c(Cl)cccc12", "µM", 6.1],
  ["Cc1ccccc1-c1nc2c(Cl)cccc2c(=O)o1", "µM", 13.8],
  ["CC(=O)Oc1ccccc1C(=O)O [ASPIRIN]", "µM", 34.6],
  ["Cc1ccccc1-c1nc2c(C)cccc2c(=O)o1", "µM", 19.3],
  ["COc1cccc2c(=O)oc(-c3ccccc3C)nc12", "µM", 8.4]
]}

[a] COc1cccc2c(=O)oc(-c3ccccc3)nc12
[b] COc1cccc2c(=O)oc(-c3ccccc3F)nc12
[c] O=c1oc(-c2ccccc2F)nc2c(Cl)cccc12
*Q* Arrange the 3 molecules from largest to smallest IC50. The labels, placed in the requested order, form the answer.
*A* a, c, b
(a: 47.3 µM, c: 12.7 µM, b: 8 µM)
